Overview of recorded viability, T/C for various molecules
- System: 628569-122-R-J1-PDC complex spheroid viability;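 further: spheroids exposed to agents for seven days before readout; 100% = DMSO vehicle control viability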
- Assay Summary: Anticancer human tumor 628569-122-R-J1-PDC patient-derived head and neck squamous carcinoma cell line growth inhibition [CLK]
- Experimental Parameters: second compound 3.16 µM; first compound 0.0316 µM; stronger effect = lower value
Parameter Measured: viability, T/C (%)

1. CCc1c2c(nc3ccc(O)cc13)-c1cc3c(c(=O)n1C2)COC(=O)[C@]3(O)CC + CNC(=O)c1ccc(Nc2nc(OC3CCCC3)c3c(-c4ccc5nc(C)oc5c4)c[nH]c3n2)c(OC)c1 ... 36.4
2. CC(=O)O[C@H]1C(=O)[C@@]2(C)[C@H]([C@H](OC(=O)c3ccccc3)[C@]3(O)C[C@H](OC(=O)[C@H](O)[C@@H](NC(=O)c4ccccc4)c4ccccc4)C(C)=C1C3(C)C)[C@]1(OC(C)=O)CO[C@@H]1C[C@@H]2O + CNC(=O)c1ccc(Nc2nc(OC3CCCC3)c3c(-c4ccc5nc(C)oc5c4)c[nH]c3n2)c(OC)c1 ... 44.8
3. C#Cc1c(F)ccc2cc(O)cc(-c3ncc4c(N5CC6CCC(C5)N6)nc(OCC56CCCN5CC(F)C6)nc4c3F)c12 (stereo not drawn) + CN1CCN(c2cc(C(=O)Nc3cc4cc(-c5cnn(C)c5)ccc4cn3)ccn2)CC1 ... 9.44
